B1: library; a variant is named by its letters at N, in order (parent)
chain: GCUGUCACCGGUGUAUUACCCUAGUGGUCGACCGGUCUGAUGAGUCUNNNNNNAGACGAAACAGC

Variants of: B1
Assay: normalized RNA/DNA level with ligand (relative to sTRSVctl = 100) (log10 (% of sTRSVctl)); ligand: hypoxanthine (xanthine aptamer); higher = less ribozyme self-cleavage, higher mRNA level
Conditions: ligand concentration (+) RNA-Seq: 5 mM, HEK293T, reporter: mCherry (pCS4076), ligand present: yes
reportedMetric: normalized RNA/DNA level with ligand (log10)

- mutationKey: "ACGGUA"
  readoutValue: 1.85
- mutationKey: "UAGGCA"
  readoutValue: 1.9
- mutationKey: "UUCUUC"
  readoutValue: 2.01
- mutationKey: "AGCGGU"
  readoutValue: 1.91
- mutationKey: "AGUGUG"
  readoutValue: 1.8
- mutationKey: "AUCCAG"
  readoutValue: 1.92
- mutationKey: "GAUAAG"
  readoutValue: 1.81
- mutationKey: "AUGCGC"
  readoutValue: 1.93
- mutationKey: "AGAGAC"
  readoutValue: 1.88
- mutationKey: "GUCAGA"
  readoutValue: 1.9
- mutationKey: "GCGCUG"
  readoutValue: 1.86
- mutationKey: "UCAGAA"
  readoutValue: 1.9
- mutationKey: "UGGCAU"
  readoutValue: 1.95
- mutationKey: "CGGAGC"
  readoutValue: 1.94
- mutationKey: "UUACAC"
  readoutValue: 1.92
- mutationKey: "CGGGCU"
  readoutValue: 1.95
- mutationKey: "ACUUAG"
  readoutValue: 1.81
- mutationKey: "AACCCG"
  readoutValue: 1.84
- mutationKey: "GGUGCG"
  readoutValue: 1.91
- mutationKey: "UGGUAU"
  readoutValue: 1.91
- mutationKey: "GUCUAC"
  readoutValue: 1.94
- mutationKey: "GCCCCA"
  readoutValue: 1.97
- mutationKey: "GGACAU"
  readoutValue: 1.89
- mutationKey: "AACAAU"
  readoutValue: 1.89
- mutationKey: "UCUUAA"
  readoutValue: 1.87
- mutationKey: "GACCCA"
  readoutValue: 1.93
- mutationKey: "GAUCCA"
  readoutValue: 1.91
- mutationKey: "UGCCUG"
  readoutValue: 1.91
- mutationKey: "CAAGCC"
  readoutValue: 1.96
- mutationKey: "AGUAUU"
  readoutValue: 1.92
- mutationKey: "AUUAUG"
  readoutValue: 1.89
- mutationKey: "UUCAGC"
  readoutValue: 1.94
- mutationKey: "CACAGU"
  readoutValue: 1.93
- mutationKey: "CACAGC"
  readoutValue: 1.95
- mutationKey: "CGGAGU"
  readoutValue: 1.91
- mutationKey: "CCCCUG"
  readoutValue: 1.93
- mutationKey: "AGCAUG"
  readoutValue: 1.87
- mutationKey: "UUUUCA"
  readoutValue: 1.94
- mutationKey: "ACCCCC"
  readoutValue: 1.99
- mutationKey: "CUACGG"
  readoutValue: 1.93
- mutationKey: "ACACCA"
  readoutValue: 1.97
- mutationKey: "ACCCAU"
  readoutValue: 1.93
- mutationKey: "GAAGCA"
  readoutValue: 1.96
- mutationKey: "GGCUAC"
  readoutValue: 1.93
- mutationKey: "UUCCAC"
  readoutValue: 1.97
- mutationKey: "CUAAAA"
  readoutValue: 1.88
